Form field: recombinant barcode read abundance (log10) (one value per entry).
PROCEDURE_SUMMARY: recombinant barcode read abundance after kanamycin selection (control-corrected) (log10(CPM+1)); higher = more efficient recombination; sequences stand for … in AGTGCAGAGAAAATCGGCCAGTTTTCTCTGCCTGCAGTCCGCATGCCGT…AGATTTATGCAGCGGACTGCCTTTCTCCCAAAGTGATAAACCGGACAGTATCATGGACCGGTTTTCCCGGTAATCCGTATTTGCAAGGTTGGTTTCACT; site = the 11-nt target
MEASUREMENT_TYPE: recombinant barcode read abundance (log10)

>>> print(df.to_string())
                      macromolecule_sequence  value_observed
 0  TGTCAAACTTGGGTTCTAACCTGTTGCCT (site TGTCAAACTAG)           0.298
 1  CTCCCAACTTGGGTTCTAACCTGTTGCCT (site CTCCCAACTAG)           0.379
 2  ACATTGCCTTGGGTTCTAACCTGTTGCCT (site ACTTTGCCTAG)               0
 3  CCACGGACTTGGGTTCTAACCTGTTGCCT (site CCATGGACTAG)          0.0265
 4  TGAGTCCCTTGGGTTCTAACCTGTTGCCT (site TGGGTCCCTAG)           0.444
 5  AAGCATCCTTGGGTTCTAACCTGTTGCCT (site AAGCATCCTAG)            1.07
 6  TCTGAGTCTTGGGTTCTAACCTGTTGCTG (site GCTGAGGCTCA)           0.141
 7  GACGGACCTTGGGTTCTAACCTGTTGCTT (site GATGGCCCTAA)           0.191
 8  GTGTACCCTTGGGTTCTAACCTGTTGCGA (site GTGTACCCTAC)           0.129
 9  GCTATGTCTTGGGTTCTAACCTGTTGCCT (site GCTATGTCTAG)            1.42
10  CGAGGGGCTTGGGTTCTAACCTGTTGCCT (site CGAGGGTCTAG)            0.35
11  TAACCTTCTTGGGTTCTAACCTGTTGCCT (site TAACCTGCTAG)         0.00987
12  AATAAGTCTTGGGTTCTAACCTGTTGCCT (site AATAAGTCTAG)           0.483
13  CTCTAGCCTTGGGTTCTAACCTGTTGCGT (site CTCTAGCCTAC)            1.25
14  CACAGTCCTTGGGTTCTAACCTGTTGCTA (site AGGGTCGCTAG)           0.049
15  TGGATTCCTTGGGTTCTAACCTGTTGCCT (site TGGATTCCTAG)           0.223
16  GGTCCACCTTGGGTTCTAACCTGTTGCCT (site TGTCCACCTAG)           0.108
17  TTGTCGACTTGGGTTCTAACCTGTTGCCA (site TTGACGACTTG)           0.105
18  GTAACTACTTGGGTTCTAACCTGTTGCGG (site GTCACTACTAC)          0.0797
19  CATGCTTCTTGGGTTCTAACCTGTTGCCT (site AGAAAAGCTTT)           0.167
20  TGTCTAGCTTGGGTTCTAACCTGTTGCCT (site TGTCTAGCTAG)           0.038

----------
PROCEDURE_SUMMARY: recombinant barcode read abundance after kanamycin selection (control-corrected) (log10(CPM+1)); higher = more efficient recombination; sequences stand for … in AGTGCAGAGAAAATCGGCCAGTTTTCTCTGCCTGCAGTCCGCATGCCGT…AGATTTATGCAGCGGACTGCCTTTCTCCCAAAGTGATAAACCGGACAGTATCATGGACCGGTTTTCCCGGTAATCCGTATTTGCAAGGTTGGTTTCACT; site = the 11-nt target
MEASUREMENT_TYPE: recombinant barcode read abundance (log10)

                     macromolecule_sequence  value_observed
0  CCAAGGCCTTGGGTTCTAACCTGTTGCCT (site TCAAGGCCTAG)          0.0686
1  AATGGGACTTGGGTTCTAACCTGTTGCGA (site AATGGGACTTC)            2.42
2  CGGGTGCCTTGGGTTCTAACCTGTTGCCT (site CCGGTGCCTAG)           0.717
3  CATTGTCCTTGGGTTCTAACCTGTTGCGT (site CATTATCCTAC)            0.15
4  TACCCGACTTGGGTTCTAACCTGTTGCCT (site TACCAGACTAG)          0.0911
5  GGGAAGACTTGGGTTCTAACCTGTTGCCT (site GGAAAGACTAG)            1.56
6  ACCCAGCCTTGGGTTCTAACCTGTTGCAT (site ACCCAGCCTAA)             1.4
7  TCCTTAGCTTGGGTTCTAACCTGTTGCCT (site TCATTCGCTAG)          0.0127
8  GAGTCGTCTTGGGTTCTAACCTGTTGCCT (site GAGTCGTCTAG)            1.78
9  GTCGCTACTTGGGTTCTAACCTGTTGCGG (site GTCTCTACTCC)           0.667

----------
PROCEDURE_SUMMARY: recombinant barcode read abundance after kanamycin selection (control-corrected) (log10(CPM+1)); higher = more efficient recombination; sequences stand for … in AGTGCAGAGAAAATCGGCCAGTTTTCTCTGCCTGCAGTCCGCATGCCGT…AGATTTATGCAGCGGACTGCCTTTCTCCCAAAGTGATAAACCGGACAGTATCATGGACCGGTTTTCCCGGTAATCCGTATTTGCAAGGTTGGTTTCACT; site = the 11-nt target
// -1 strictly below 0.1 in recombinant barcode read abundance (log10); 1 otherwise

>>> df
                      macromolecule_sequence  class
 0  CGGCTGACTTGGGTTCTAACCTGTTGCCT (site CGGCTGACTAG)      1
 1  ACAGTACCTTGGGTTCTAACCTGTTGCTG (site ACAGTACCTCA)      1
 2  ATTTGGACTTGGGTTCTAACCTGTTGCCT (site ATTTGCACTAG)     -1
 3  CAATGGTCTTGGGTTCTAACCTGTTGCCT (site CAATGGTCTAG)      1
 4  CTAAGGTCTTGGGTTCTAACCTGTTGCCT (site CTAAGGTCTAC)      1
 5  TAGAATCCTTGGGTTCTAACCTGTTGCAG (site TAGAATCCTGT)     -1
 6  TCGGGATCTTGGGTTCTAACCTGTTGCCT (site TCGGGATCTAG)      1
 7  CATTGGACTTGGGTTCTAACCTGTTGCCT (site CAGTGGACTAG)     -1
 8  CAGCGGTCTTGGGTTCTAACCTGTTGCGA (site TTATACACTCT)     -1
 9  ATGCATCCTTGGGTTCTAACCTGTTGCCT (site ACGCATCCTAG)     -1
10  AGTACGCCTTGGGTTCTAACCTGTTGCCT (site TGAACGCCTAG)     -1
11  AGCGGTCCTTGGGTTCTAACCTGTTGCCT (site AGCGGACCTAG)      1
12  TGGGTCCCTTGGGTTCTAACCTGTTGCCT (site TGAGTCCCTAG)      1
13  AGTAGAACTTGGGTTCTAACCTGTTGCCT (site CGTAGAGCTAG)      1
14  CCGCTTACTTGGGTTCTAACCTGTTGCCT (site CCGCTTACTAG)     -1
15  ACTGGGTCTTGGGTTCTAACCTGTTGCTT (site ACTGGGTCTAA)      1
16  TATACAACTTGGGTTCTAACCTGTTGCCT (site TATATAACTAG)     -1
17  TTACCAACTTGGGTTCTAACCTGTTGCCT (site TTACCCACTAG)      1
18  AAGCAGTCTTGGGTTCTAACCTGTTGCCT (site AAGCACTCTAG)      1
19  TACCCACCTTGGGTTCTAACCTGTTGCCT (site TACCCACCTAG)      1
20  TAGGCTCCTTGGGTTCTAACCTGTTGCAA (site TAGGCTCCTTT)      1

----------
PROCEDURE_SUMMARY: recombinant UMI read abundance after kanamycin selection (control-corrected) (log10(CPM+1)); higher = more efficient recombination; extreme values may be limits of the assay; sequences stand for … in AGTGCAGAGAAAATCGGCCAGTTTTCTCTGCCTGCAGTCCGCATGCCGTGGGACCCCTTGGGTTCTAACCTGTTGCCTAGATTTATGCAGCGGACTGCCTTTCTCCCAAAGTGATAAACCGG…AGGTTGGTTTCACT; site = the 11-nt donor
Could you label it MET if measured recombinant UMI read abundance (log10) is 0.06 or higher, and NOT MET otherwise?

>>> print(df.to_string())
                     macromolecule_sequence    class
0  AGGCAGACATGGACCGGTTTTCCCGGTAATCCGTATTTGCA (site AGGGAGACTTG)  NOT MET
1  AGGAACACATGGACCGGTTTTCCCGGTAATCCGTATTTGAA (site AGGAACACTTT)      MET
2  AATTTTGCATGGACCGGTTTTCCCGGTAATCCGTATTTGGA (site AATTGTGCTTC)      MET
3  CTAGTATCATGGACCGGTTTTCCCGGTAATCCGTATTTGTC (site CTAGTATCTGC)      MET
4  CGCGATTCATGGACCGGTTTTCCCGGTAATCCGTATTTGGA (site CGCGATTCTTC)      MET
5  CTCCCTTCATGGACCGGTTTTCCCGGTAATCCGTATTTGAG (site CTCCCTCCTCT)  NOT MET
6  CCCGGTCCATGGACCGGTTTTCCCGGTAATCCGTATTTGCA (site CACGGTCCTTG)  NOT MET
7  ACACTAGCATGGACCGGTTTTCCCGGTAATCCGTATTTGCA (site ACACTAGCTTG)      MET
8  CCGACATCATGGACCGGTTTTCCCGGTAATCCGTATTTGCT (site CAGACATCTAG)  NOT MET
